Data provenance: ChEMBL document CHEMBL5505955

System: HT-29
assay.procedure: Antiproliferative activity against human HT-29 cells assessed as reduction in cell viability incubated for 72 hrs by MTT assay
Type: functional, cell-based
test.context: HT-29, 72 h
assay.metric: pIC50
Value format note: pIC50 is -log10 of concentration (mol/L); just state the number.

Challenge: What measured pIC50 goes with O=C(N/N=C/c1ccccc1O)c1cccc(Cl)c1 ?
Response given: 6.02

====

measured.on: Amine oxidase [flavin-containing] A (Homo sapiens, UniProt P21397)
Sequence (P21397 whole entry): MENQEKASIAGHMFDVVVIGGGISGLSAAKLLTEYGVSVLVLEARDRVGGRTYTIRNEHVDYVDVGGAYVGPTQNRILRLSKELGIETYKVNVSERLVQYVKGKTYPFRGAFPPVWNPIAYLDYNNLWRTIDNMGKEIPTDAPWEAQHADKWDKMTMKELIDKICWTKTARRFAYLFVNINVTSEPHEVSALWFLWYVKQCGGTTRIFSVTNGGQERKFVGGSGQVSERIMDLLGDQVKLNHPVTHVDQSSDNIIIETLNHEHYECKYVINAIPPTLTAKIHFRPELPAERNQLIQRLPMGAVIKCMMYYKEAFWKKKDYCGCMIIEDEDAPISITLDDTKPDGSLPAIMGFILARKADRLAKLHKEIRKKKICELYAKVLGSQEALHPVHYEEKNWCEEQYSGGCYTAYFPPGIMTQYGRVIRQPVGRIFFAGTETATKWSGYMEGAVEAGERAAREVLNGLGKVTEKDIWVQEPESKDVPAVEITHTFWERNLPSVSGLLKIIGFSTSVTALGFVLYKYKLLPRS
assay.metric: pIC50
Please note pIC50 is a logarithmic value: minus log10 of concentration in mol/L. Answer with that number alone.

Challenge: Entry COC1=CC(=O)OC(/C=C/c2ccccc2)C1 (stereo unspecified) : reported pIC50 = ?
Response given: 8.89
